Origin of values: patent US7858630B2

Heads up, these compounds all have Ki values measured for human dopamine D3 receptor (Homo sapiens).
recorded endpoint: Ki (nM)

Answered examples (5):
compound: O=C(CC1(O)CCOCC1)N[C@H]1CC[C@H](CCN2CCN(c3noc4cc(F)c(F)cc34)CC2)CC1 [Example 61]
Ki [nM]: 10.1
//
compound: CC(C)(O)CC(=O)N[C@H]1CC[C@H](CCN2CCN(c3noc4cc(F)c(F)cc34)CC2)CC1 [Example 64]
Ki [nM]: 10.1
//
compound: Cc1cc2c(N3CCN(CC[C@H]4CC[C@H](NC(=O)C[C@@H]5COCCO5)CC4)CC3)noc2cc1F [Example 114]
Ki [nM]: 31
//
compound: CCC(=O)N[C@H]1CC[C@H](CCN2CCN(c3noc4cc(Cl)c(F)cc34)CC2)CC1 [Example 70]
Ki [nM]: 7.15
//
compound: CS(=O)(=O)CCC(=O)N[C@H]1CC[C@H](CCN2CCN(c3noc4cc(F)c(Cl)cc34)CC2)CC1 [Example 90]
Ki [nM]: 14.3

[I] Cc1cc2c(N3CCN(CC[C@H]4CC[C@H](NC(=O)CC5OCCCO5)CC4)CC3)noc2cc1F [Example 111]
[II] O=C(N[C@H]1CC[C@H](CCN2CCN(c3noc4cc(F)c(F)cc34)CC2)CC1)C1CCOCC1 [Example 67]
Query :: Response body: label of entry with the larger Ki; valid values I , II . When you have decided, please share the label of that item.
Result :: II

[I] CC(=O)N[C@H]1CC[C@H](CCN2CCN(c3noc4cc(F)c(Cl)cc34)CC2)CC1 [Example 73]
[II] O=C(C[C@H]1C[C@H](CO)C1)N[C@H]1CC[C@H](CCN2CCN(c3noc4ccc(F)cc34)CC2)CC1 [Example 20]
Query :: Response body: label of entry with the larger Ki; valid values I , II . When you have decided, please share the label of that item.
Result :: I
(I: 9.74 nM, II: 5.55 nM)

---

Heads up, these compounds all have pKi values measured for UniProt:P28223.
Sequence (P28223 whole entry): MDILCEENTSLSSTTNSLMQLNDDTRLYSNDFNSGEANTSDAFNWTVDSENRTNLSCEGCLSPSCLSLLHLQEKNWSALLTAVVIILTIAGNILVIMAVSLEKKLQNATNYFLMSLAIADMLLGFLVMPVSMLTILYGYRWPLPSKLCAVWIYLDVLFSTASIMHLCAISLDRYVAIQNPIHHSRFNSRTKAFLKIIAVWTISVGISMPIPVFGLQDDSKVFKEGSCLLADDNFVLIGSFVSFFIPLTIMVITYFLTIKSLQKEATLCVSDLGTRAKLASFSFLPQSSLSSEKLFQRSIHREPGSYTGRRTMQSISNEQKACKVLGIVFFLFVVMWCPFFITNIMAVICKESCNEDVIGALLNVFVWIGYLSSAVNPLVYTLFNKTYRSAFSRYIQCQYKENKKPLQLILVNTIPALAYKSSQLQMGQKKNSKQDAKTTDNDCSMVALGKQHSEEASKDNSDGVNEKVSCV
pKi: −log10 of the molar value.
recorded endpoint: pKi

[P] O=C(CC1OCCCO1)N[C@H]1CC[C@H](CCN2CCN(c3noc4cc(F)c(Cl)cc34)CC2)CC1 [Example 77]
[Q] COCC(=O)N[C@H]1CC[C@H](CCN2CCN(c3noc4cc(F)c(C)cc34)CC2)CC1 [Example 107]
Query :: Response body: label of entry with the larger pKi; valid values P , Q . When you have decided, please share the label of that item.
Result :: P

[P] COCCC(=O)N[C@H]1CC[C@H](CCN2CCN(c3noc4ccc(F)cc34)CC2)CC1 [Example 5]
[Q] Cc1cc2c(N3CCN(CC[C@H]4CC[C@H](NC(=O)CC5OCCCO5)CC4)CC3)noc2cc1F [Example 111]
[R] O=C(CC1COCCO1)N[C@H]1CC[C@H](CCN2CCN(c3noc4ccc(F)cc34)CC2)CC1 (stereo partly shown) [Example 15]
Query :: Sort low-to-high on pKi, please. State the ranking by listing the labels in the requested order.
Result :: P, R, Q
(P: 7.50, R: 7.81, Q: 8.12)

[I] O=C(N[C@H]1CC[C@H](CCN2CCN(c3noc4cc(F)c(Cl)cc34)CC2)CC1)C1CCC1 [Example 92]
[II] O=C(CC1CCOCC1)N[C@H]1CC[C@H](CCN2CCN(c3noc4ccc(F)cc34)CC2)CC1 [Example 8]
[III] COC1CCC(C(=O)N[C@H]2CC[C@H](CCN3CCN(c4noc5cc(F)c(F)cc45)CC3)CC2)CC1 (stereo partly shown) [Example 66]
[IV] CO[C@H]1CC[C@H](CC(=O)N[C@H]2CC[C@H](CCN3CCN(c4noc5cc(Cl)c(Cl)cc45)CC3)CC2)CC1 [Example 96]
Query :: Sort low-to-high on pKi, please. State the ranking by listing the labels in the requested order.
Result :: IV, II, I, III
